// data source = patent US20250320281A1

target.or.test.system: HIV-1 Env of isolate PVO.4 (clade B pseudovirus) (HIV-1)
protocol: cell-based or functional assay
measure.name: IC50 (neutralization, TZM-bl pseudovirus assay) (µg/mL)
Response body: numeric value in µg/mL, unit text excluded.

Below are worked cases with known answers.
- binder: "1456_A12 (PG16) (TCN-117) (antibody, V domains shown) VH: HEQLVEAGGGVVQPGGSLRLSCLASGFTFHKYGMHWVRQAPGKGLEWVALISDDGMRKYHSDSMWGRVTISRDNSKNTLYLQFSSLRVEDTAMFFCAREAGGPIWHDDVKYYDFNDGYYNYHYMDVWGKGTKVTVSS VL: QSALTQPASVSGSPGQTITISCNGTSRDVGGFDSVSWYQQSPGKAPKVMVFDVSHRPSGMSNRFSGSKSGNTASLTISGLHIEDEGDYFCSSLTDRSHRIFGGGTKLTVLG"
  value: 10.4
- binder: "1469_M23 (PG16) (TCN-118) (antibody, V domains shown) VH: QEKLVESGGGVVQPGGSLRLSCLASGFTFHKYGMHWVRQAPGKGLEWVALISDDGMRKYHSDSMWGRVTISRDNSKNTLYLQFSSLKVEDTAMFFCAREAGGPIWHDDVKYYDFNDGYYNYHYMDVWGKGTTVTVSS VL: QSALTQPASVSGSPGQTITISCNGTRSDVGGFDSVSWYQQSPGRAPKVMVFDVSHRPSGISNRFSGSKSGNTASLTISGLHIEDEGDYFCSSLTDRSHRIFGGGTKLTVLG"
  value: 21.2
- binder: "1503_H05 (PG16) (TCN-119) (antibody, V domains shown) VH: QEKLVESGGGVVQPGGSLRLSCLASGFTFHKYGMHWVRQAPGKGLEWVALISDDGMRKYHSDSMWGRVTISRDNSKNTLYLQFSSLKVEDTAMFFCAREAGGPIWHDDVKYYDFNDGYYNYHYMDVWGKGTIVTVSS VL: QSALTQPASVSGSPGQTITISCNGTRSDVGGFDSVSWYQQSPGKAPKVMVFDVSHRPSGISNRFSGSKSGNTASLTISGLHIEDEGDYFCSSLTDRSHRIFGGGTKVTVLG"
  value: 11

Next binder, IC50 (neutralization, TZM-bl pseudovirus assay) to be filled in.
If you can, please state the reported IC50 (neutralization, TZM-bl pseudovirus assay) value of 1489_I13 (PG16) (TCN-120) (antibody, V domains shown) VH: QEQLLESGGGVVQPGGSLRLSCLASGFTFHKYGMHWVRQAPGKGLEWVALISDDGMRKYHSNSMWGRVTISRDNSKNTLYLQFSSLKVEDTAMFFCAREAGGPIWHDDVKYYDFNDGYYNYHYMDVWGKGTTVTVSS VL: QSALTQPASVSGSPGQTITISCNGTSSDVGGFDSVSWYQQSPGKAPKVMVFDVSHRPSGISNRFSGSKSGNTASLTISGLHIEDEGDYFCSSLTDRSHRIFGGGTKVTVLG .
20.6
